This listing pairs molecules with measured EC50.
Target: human adenosine A2B receptor (Homo sapiens (Human))
Sequence (P29275 whole entry): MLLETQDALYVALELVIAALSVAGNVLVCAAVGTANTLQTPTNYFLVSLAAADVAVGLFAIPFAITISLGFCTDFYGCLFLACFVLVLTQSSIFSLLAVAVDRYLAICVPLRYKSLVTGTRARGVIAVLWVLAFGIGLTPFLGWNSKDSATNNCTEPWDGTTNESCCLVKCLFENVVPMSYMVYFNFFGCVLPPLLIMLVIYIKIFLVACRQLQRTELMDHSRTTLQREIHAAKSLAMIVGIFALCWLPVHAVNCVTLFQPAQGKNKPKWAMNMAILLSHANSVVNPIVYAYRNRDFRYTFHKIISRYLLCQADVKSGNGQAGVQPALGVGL
Experiment: Adenosine A2B Receptor Cyclic AMP GS Assay
Details: HEK-293 cells, agonist NECA at 12 nM, cAMP accumulation; read-out: A2B—cAMP_EC50
Method: Stably transfected HEK-293 cells expressing the human adenosine A2B receptor (Perkin Elmer) were maintained in MEM culture medium with 10% FBS and 100 μg/mL Geneticin (Life Technologies). 18 to 24 hours prior to assay, geneticin was removed from culture. The cisbio cAMP-GS Dynamic kit utilizing the FRET (Fluorescence Resonance Energy Transfer) technology was used to measure cAMP accumulation in the cells. […]
Endpoint name: EC50

Cc1ncoc1-c1c(-c2cccc(C#N)c2F)nc(N)c2nn(CCc3ccccn3)nc12    10 to 100 nM
CCn1nccc1-c1c(-c2cccc(C#N)c2F)nc(N)c2nn(Cc3ccccn3)nc12    ≤ 10 nM
N#Cc1cccc(-c2nc(N)c3nn(Cc4ccccn4)nc3c2-c2ccc3ncccc3c2)c1    ≤ 10 nM
CCn1nccc1-c1c(-c2cccc(C#N)c2)nc(N)c2nn(Cc3ncccc3F)cc12    ≤ 10 nM
